target: HLA-A*0206 (human); experiment: competition with 125I-labelled standard peptide 941.01 for purified HLA, gel filtration; settings: scale: ratio
Property: binding affinity ratio; scope: individual binders

Example binders with recorded binding affinity ratio:
| Binder | Quantity kind | Data value |
| --- | --- | --- |
| VTKFMLCA (modifications not checked) [VTKFMLCA (PSA, position 188, 8 amino acids)] | binding affinity ratio | -0.0001 |
| GLPTQEPA (modifications not checked) [Kallikrein (hK2) peptide GLPTQEPA (position 140)] | binding affinity ratio | -0.0001 |
| WAHCGGVL (modifications not checked) [WAHCGGVL (Kallikrein, position 47, 8 amino acids)] | binding affinity ratio | 0.0001 |

Inquiry: Report measured binding affinity ratio; entry is VVKVLGLPT (modifications not checked) [… (Kallikrein, position 135, 9 amino acids)]
Reply text: 0.0008

Inquiry: Read the entry VVHYRKWI (modifications not checked) [VVHYRKWI (PSA, position 242, 8 amino acids)] and write its reported binding affinity ratio.
Reply text: 0.0001

Recorded values, source patent US20070020327A1.
